# key: entry, value: melting point
measurement.kind: melting point

>  <molecule>
c1ccc(CSc2nc3ccccn3n2)cc1

>  <measurement.kind>
melting point

>  <result>
79 to 81 °C

$$$$
>  <molecule>
O=C1c2cccc(O)c2C(=O)c2ccsc21

>  <measurement.kind>
melting point

>  <result>
199 to 200 °C

$$$$
>  <molecule>
N#Cc1c(Cc2ccccc2)nn(C2CCCC2)c1NC(=O)c1ccncc1

>  <measurement.kind>
melting point

>  <result>
189 to 191 °C

$$$$
>  <molecule>
COC1(c2cc(F)cc(Sc3ccc(NC(C)=O)cc3)c2)CCN(CC(F)(F)F)C1 (centres undefined)

>  <measurement.kind>
melting point

>  <result>
127 to 129 °C

$$$$
>  <molecule>
COc1cc(OC)cc(C(=O)N2CCc3cc(OCc4ccccc4)c(OC)cc3C2=O)c1

>  <measurement.kind>
melting point

>  <result>
180 to 181 °C

$$$$
>  <molecule>
CC1(Cc2ccccc2)Cc2cc(O)c(Cl)c(Cl)c2C1=O (centres undefined)

>  <measurement.kind>
melting point

>  <result>
219 to 221 °C

$$$$
>  <molecule>
c1cn2cnnc2c2cc3c(cc12)OCO3

>  <measurement.kind>
melting point

>  <result>
267 to 269 °C

$$$$
>  <molecule>
CCC(CC)C1CC(=O)C(C(=O)NS(=O)(=O)c2ccc(C)cc2)C(=O)C1 (centres undefined)

>  <measurement.kind>
melting point

>  <result>
112 °C

$$$$
>  <molecule>
CCOC(=O)c1cc2cc3[nH]c(=O)[nH]c3cc2[nH]1

>  <measurement.kind>
melting point

>  <result>
196 to 197 °C

$$$$

###

# key: entry, value: melting point

>  <compound>
CC(C)N(NC(=O)OC(C)(C)C)C(=O)NCC(F)(F)F

>  <melting point>
90 to 94 °C

$$$$
>  <compound>
Cc1c(SCCN2CCc3ccccc3C2)ccnc1CSc1nc2ccccc2[nH]1

>  <melting point>
90 to 94 °C

$$$$
>  <compound>
O=C(CN1CCN(c2ccc(C(=O)O)cc2)CC1)Nc1ccc(Cl)cc1

>  <melting point>
263 to 265 °C

$$$$
>  <compound>
CC(C)n1c(CC[C@@H](O)C[C@@H](O)CC(=O)O)c(-c2ccc(F)cc2)c(-c2ccc(F)cc2)c1C(=O)NCc1ccc(C(=O)O)cc1

>  <melting point>
140 to 142 °C

$$$$
>  <compound>
CC(C)CCCC(C)(C)NC(=O)CN1C(=O)c2ccccc2C1=O

>  <melting point>
162 to 163 °C

$$$$
>  <compound>
Nc1nc2cccnc2n1Cc1ccco1

>  <melting point>
193 °C

$$$$
>  <compound>
Cn1ccn(Cc2ccc([N+](=O)[O-])cc2)c1=S

>  <melting point>
162 to 168 °C

$$$$
>  <compound>
Cc1ccc(Nn2c(-c3ccccc3)c(C)[nH]c2=S)cc1Cl

>  <melting point>
190 °C

$$$$
>  <compound>
O=C(NCc1ncco1)c1ccnc(N2CCN(Cc3ccc(F)cc3)C2=O)c1

>  <melting point>
148 to 150 °C

$$$$
>  <compound>
O=C(c1ccccc1)c1[nH]c2cc(Cl)ccc2c1CC(=O)N1CCCCC1

>  <melting point>
223 to 224 °C

$$$$
>  <compound>
CN1c2ccccc2[C@H]2Cc3ccccc3[C@H]21 (relative stereo)

>  <melting point>
76 to 77 °C

$$$$
>  <compound>
CN(CC(=O)Nc1cccc(-c2cc(-c3ccccc3O)nc(NC(=O)c3cccs3)c2C#N)c1)C(=O)OC(C)(C)C

>  <melting point>
143 to 149 °C

$$$$
>  <compound>
CCCCCCCCCCCCCCCc1ccc2c(c1)C1(O)C(=O)c3ccccc3C1(O)O2 (stereo not drawn)

>  <melting point>
105 to 110 °C

$$$$
>  <compound>
N#Cc1ccccc1OCCCCCCCC(=O)O

>  <melting point>
83 to 85 °C

$$$$
>  <compound>
CCOC(=O)c1cn(-c2nc(N)c(F)cc2F)c2c(F)c(F)c(F)c(F)c2c1=O

>  <melting point>
223 to 230 °C

$$$$
>  <compound>
CCOc1nn(-c2ccc(C(F)(F)F)cn2)cc1CCCOc1cccc(OC)c1CCC(=O)O

>  <melting point>
110 to 111 °C

$$$$
>  <compound>
Cc1cc(N)nc(-c2ccncc2)n1

>  <melting point>
192 to 194 °C

$$$$
>  <compound>
O=Cc1nn(-c2cccc(C(F)(F)F)c2)c2c1CCCC2

>  <melting point>
88 °C

$$$$
>  <compound>
OCc1ccc(C2=NOC(c3cc(Cl)cc(Cl)c3)(C(F)(F)F)C2)cc1Cl (stereo not drawn)

>  <melting point>
32 to 35 °C

$$$$
>  <compound>
O=C(O)CCc1cn(Cc2ccc(F)cc2)c2ccc(C(=O)CC(=O)C(=O)O)cc2c1=O

>  <melting point>
184 to 187 °C

$$$$
>  <compound>
CC#Cc1ccc(NC(=O)c2cccnc2NCc2ccc(OC)nc2)cc1C(F)(F)F

>  <melting point>
109 to 111 °C

$$$$
>  <compound>
CNC(=S)NS(=O)(=O)c1cc(CCNC(=O)/C=C/c2cccs2)ccc1OCCOC

>  <melting point>
140 °C

$$$$
>  <compound>
CCCCOc1cc(CCC(=O)O)n(Cc2ccc(C(F)(F)F)cc2Cl)n1

>  <melting point>
125 to 126 °C

$$$$
>  <compound>
CCOC(=O)C1=C(COC)NC(COC)=C(C(=O)OCC)C1c1ccccc1C(F)(F)F

>  <melting point>
133 to 134 °C

$$$$
>  <compound>
COC(=O)CCNCc1ccc(-c2cc3ncnc(Nc4ccc5[nH]ccc5c4)c3s2)cc1

>  <melting point>
105 to 118 °C

$$$$
>  <compound>
Cc1ccc(N(C(=O)CCl)c2c(F)cccc2Cl)cc1

>  <melting point>
80 to 83 °C

$$$$
>  <compound>
CC(=O)C(=Cc1cc(O)c(O)c([N+](=O)[O-])c1)c1ccccc1

>  <melting point>
170 to 176 °C

$$$$
>  <compound>
O=CNC1=CCc2cc(Cl)ccc21

>  <melting point>
155 °C

$$$$
>  <compound>
CC=Cc1cn(C2CC(O)C(CO)O2)c(=O)[nH]c1=O (stereo not drawn)

>  <melting point>
178 °C

$$$$
>  <compound>
Cc1cc(-c2nncc3c(Br)c(OCc4ncnn4C)nn23)no1

>  <melting point>
239 to 241 °C

$$$$
>  <compound>
C[C@@H](n1cnc2cc(-c3ccc(F)cc3)sc2c1=O)[C@](O)(Cn1cncn1)c1ccccc1F

>  <melting point>
213 to 225 °C

$$$$
>  <compound>
C=CC1(O)CN2CCC1CC2 (stereo not drawn)

>  <melting point>
76 to 80 °C

$$$$
>  <compound>
CSc1nn2c(NCCN(C)C)cc(C)nc2c1S(=O)(=O)c1ccccc1

>  <melting point>
190 to 191 °C

$$$$
>  <compound>
Cc1ccc(-c2cc(CNc3cc(CNc4cc(-c5ccc(C)cc5)[nH]n4)n[nH]3)n[nH]2)cc1

>  <melting point>
167 °C

$$$$
>  <compound>
CS(=O)(=O)N1CCN(C(=N)Nc2ccccc2-c2ccccc2)CC1

>  <melting point>
178 to 180 °C

$$$$
>  <compound>
c1ccc(-n2nnnc2OCC2CO2)cc1 (stereo not drawn)

>  <melting point>
77 to 81 °C

$$$$
>  <compound>
CC(C)(OCc1nn(Cc2ccccc2)c2ccccc12)C(=O)NO

>  <melting point>
115 to 116 °C

$$$$
>  <compound>
CN(C)C=C(C#N)C(=O)Nc1cc(F)ccc1F

>  <melting point>
175 to 176 °C

$$$$
